test system: T-47D; assay: NCI cytotoxicity screen; assay type: cell-based, human; conditions: 10.0 μM one dose; T-47D
The label T is reserved for GI % strictly under 20%; F covers values equal to or above it.

Solved entries:
COc1cccc(C(C)=NNC(=O)CSc2nc3ccccc3c(=O)n2Cc2ccc(S(N)(=O)=O)cc2)c1 [Compound 11] :: T
COc1cc(C(C)=NNC(=O)CSc2nc3ccccc3c(=O)n2Cc2ccc(S(N)(=O)=O)cc2)cc(OC)c1OC [Compound 13] :: T
Cc1ccc(C=NNC(=O)CSc2nc3ccccc3c(=O)n2Cc2ccc(S(N)(=O)=O)cc2)cc1 [Compound 9] :: T
COc1cc(OC)cc(C(C)=NNC(=O)CSc2nc3ccccc3c(=O)n2Cc2ccc(S(N)(=O)=O)cc2)c1 [Compound 12] :: F
NS(=O)(=O)c1ccc(Cn2c(SCC(=O)NN=Cc3ccccc3O)nc3ccccc3c2=O)cc1 [Compound 6] :: F
Cc1ccc(NC(=O)c2ccc(CN3CCN(C)CC3)cc2)cc1Nc1nccc(-c2cccnc2)n1 [Imatinib, reference compound] :: T

We now examine a further compound.
Is GI % of CCN(CC)c1ccc(C=NNC(=O)CSc2nc3ccccc3c(=O)n2Cc2ccc(S(N)(=O)=O)cc2)c(O)c1 [Compound 5] strictly below 20%?
F

This collection of values is drawn from paper PMC11702208.
